Molecular target: β2-adrenoceptor (Homo sapiens, UniProt P07550)
Sequence (P07550 whole entry, species assumed): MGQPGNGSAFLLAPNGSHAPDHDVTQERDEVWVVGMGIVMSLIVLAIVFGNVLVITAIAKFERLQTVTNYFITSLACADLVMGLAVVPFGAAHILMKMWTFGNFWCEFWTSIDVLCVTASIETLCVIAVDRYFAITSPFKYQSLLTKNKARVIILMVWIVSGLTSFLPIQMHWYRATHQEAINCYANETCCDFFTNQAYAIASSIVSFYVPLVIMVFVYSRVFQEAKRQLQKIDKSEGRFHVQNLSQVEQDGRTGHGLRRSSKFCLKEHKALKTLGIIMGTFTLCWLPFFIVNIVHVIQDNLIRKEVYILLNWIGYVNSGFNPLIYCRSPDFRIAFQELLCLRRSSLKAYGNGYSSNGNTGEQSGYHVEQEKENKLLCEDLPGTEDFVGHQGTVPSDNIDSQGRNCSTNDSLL
Test: β2-adrenoceptor binding potency, classical filtration binding assay
Settings: read-out: Ki (β2)
readoutType: Ki (pM)
Expressed in pM, but write only the number.

-- ask Indicate its recorded Ki; the molecule in question is O=c1[nH]c2c(O)ccc(C(O)CNCCc3ccc(OCCCCc4ccccc4)cc3)c2s1 (stereo not shown) [Example 1]
-- reply 300

---

Biological target: UniProtKB P07550
Assay: β2-adrenoceptor binding potency, classical filtration binding assay
readoutType: pKi
Friendly reminder that pKi comes from taking -log10 of the concentration in mol/L.

-- ask Indicate its recorded pKi; the molecule in question is COc1ccc(C[C@@H](C)NCC(O)c2ccc(O)c3[nH]c(=O)sc23)cc1 (stereo partly shown)
-- reply 8.80
